target: Regulator of G-protein signaling 4 (Homo sapiens)
test: RGS4-Galphao binding modulators, SAR follow-up, biochemical, multiplexed bead flow cytometry, SAR compounds (AID 2295)
experimentalConditions: bead-based flow cytometry, RGS4-AF488 Galphao binding
The source made the active and inactive calls.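 The calls were made as follows: active = EC50 of 30 microM or lower, as activator or inhibitor; inactive = the rest.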
measurementKind: EC50

Solved entries:
Input: Returns the measured EC50 for the input compound. Input: `NS(=O)(=O)c1ccc(N/N=C/c2ccc(O)c(O)c2O)c([N+](=O)[O-])c1`
Output: 1.2 µM

Input: Here is the next compound: CC(NC(=O)c1sc2cc([N+](=O)[O-])ccc2c1Cl)C(C)(C)C (stereo not given)
Output: > 30 µM (inactive)

Input: What would you report for `Cc1[nH]n(-c2ccccc2)c(=S)c1C=NCCCN=Cc1c(C)[nH]n(-c2ccccc2)c1=S` ?
Output: > 30 µM (inactive)

Further cases:
Input: I would be grateful if you could share the reported EC50 for Cc1cccc(N2CCN(C(=O)Cn3sc4nc(C)cc(C)c4c3=O)CC2C)c1 (stereo not given) .
Output: > 30 µM (inactive)

Input: Proceed to `CC(=O)OCCCNc1cc(Sc2nc3ccccc3s2)c2nonc2c1[N+](=O)[O-]`
Output: > 30 µM (inactive)
